Recorded normalized growth, one value per entry.
experiment: chemical genetic growth profiling, strain panel (AID 1159580);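 note: tested at 20 µM; growth read once vehicle control cultures reached saturation at 30 °C; 1 = growth at the plate median or of vehicle wells; lower values mean less growth of the strain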
test settings: S. cerevisiae deletion strains, growth OD, locus YGL078C, strain dbp3, hits give low values
Hit rate of the full screen: of about 5,500 compounds, about 2,000 (36%) were called active. Another 18% or so got no clear call; they are omitted. The list shows a part of the results.
Kindly provide the number alone.

Example entries and their recorded answers appear below.
COc1cc(O)c(C(=O)c2ccccc2)cc1O; 0.937
C=CC1=C(C(=O)O)N2C(=O)[C@@H](NC(=O)/C(=N/O)c3csc(N)n3)[C@H]2SC1; 0.989
Cc1ccc2c(c1)CC[C@H]1CC(=O)CC[C@]21C; 0.989
N=c1nc(N2CCCCC2)cc(N)n1O; 0.985
CN=C(NC#N)NCCSCc1nc[nH]c1C; 0.989
COc1c(CC=C(C)C)c2c(c3oc(=O)c(-c4ccc(OC(C)=O)cc4)c(OC(C)=O)c13)C=CC(C)(C)O2; 1

Prompt line: Value lookup for normalized growth; key = "OC(CCN1CCCCC1)(c1ccccc1)c1ccccc1"
Response line: 1

Prompt line: // query: "Cc1cc(C(C)(C)CC(C)(C)C)ccc1OCCOCC[N+](C)(C)Cc1ccccc1"
Response line: 0.0843

Prompt line: And then CCC(C(=O)O)c1ccccc1 (centres undefined) , what is it?
Response line: 0.979

Prompt line: Likewise for "NC(N)=Nc1nc(CSCCC(N)=NS(N)(=O)=O)cs1" ?
Response line: 1

Prompt line: Lookup CC(C)CC1C(=O)N2CCC[C@H]2C2(O)O[C@](NC(=O)C3C=C4c5cccc6[nH]c(Br)c(c56)C[C@H]4N(C)C3)(C(C)C)C(=O)N12 (some centres undefined)
Response line: 0.965

Prompt line: Would you mind doing CC(=O)O[C@]1(C(C)=O)CCC2C3C[C@H](C)C4=CC(=O)CC[C@]4(C)C3CC[C@@]21C (some centres undefined) as well?
Response line: 0.982

Prompt line: Would you mind doing CC1(C)C2CC[C@]3(C)C(C(=O)C=C4[C@@H]5C[C@@](C)(C(=O)O)CC[C@]5(C)CC[C@]43C)[C@@]2(C)CC[C@@H]1OC(=O)CCC(=O)O (some centres undefined) as well?
Response line: 0.98

----------
# Lookup of reported normalized growth keyed by entry
experiment: chemical genetic growth profiling, strain panel (AID 1159580)
test settings: S. cerevisiae deletion strains, growth OD, locus YBR279W, strain paf1, hits give low values
The whole screen tested about 5,500 compounds, of which about 2,000 (36%) were called active. Inconclusive results (about 18%) are left out. The list shows a part of the results.

The following molecules have reported results that may help.
COc1ccc(-c2coc3c(OC)c(OC)cc(O)c3c2=O)cc1; 0.995 (inactive)
COC(=O)C1=COC(OC2OC(CO)C(O)C(O)C2O)C2C(C)CC(=O)C12O (configuration not stated); 0.995 (inactive)
CC(=O)O[C@H]1C(=O)[C@@]2(C)C([C@H](OC(=O)c3ccccc3)[C@]3(O)C[C@H](O)C(C)=C1C3(C)C)[C@]1(OC(C)=O)CO[C@@H]1C[C@@H]2O (some centres not stated); 0.999 (inactive)

Prompt line: Bench note: what normalized growth did "CC(C)[C@H](N)C(=O)OCCOCn1cnc2c(=O)[nH]c(N)nc21" show?
Response line: 1.02 (inactive)

Prompt line: Now the same for "O=C(O)c1ccccc1OP(=O)(O)O"
Response line: 1 (inactive)

Prompt line: What about this molecule? O=C1CC(c2ccc(O)c(O)c2)Oc2cc(O)cc(O)c21 (configuration not stated)
Response line: 1.01 (inactive)

Prompt line: Cool, now "O=C(O)c1cc(=O)c2ccc(Cl)cc2[nH]1"
Response line: 1.01 (inactive)

Prompt line: And the next one, "O=c1ccc2cc(O)c(O)cc2o1" ?
Response line: 1.01 (inactive)

----------
experiment: chemical genetic growth profiling, strain panel (AID 1159580)
test settings: S. cerevisiae deletion strains, growth OD, locus YLR221C, strain rsa3, hits give low values
Among all 5,500 compounds or so, about 2,000 (36%) were called active. Another 18% or so got no clear call; they are omitted. The list shows a part of the results.
test readout: normalized growth

Solved cases (5 shown):
CC1(C)C2CC[C@]3(C)C(C(=O)C=C4[C@@H]5C[C@@](C)(C(=O)O)CC[C@]5(C)CC[C@]43C)[C@@]2(C)CC[C@@H]1O (some centres undefined); 0.918 (inactive)
N#Cc1c(Cl)c(Cl)c(Cl)c(C#N)c1Cl; 0.0754 (active)
COc1ccc(-c2coc3c(OC)c(OC)cc(O)c3c2=O)cc1; 0.997 (inactive)
Cn1cc[nH]c1=S; 1.04 (inactive)
COc1ccc(-c2coc3c(O)c(OC)ccc3c2=O)cc1; 0.957 (inactive)

Prompt line: Find the recorded normalized growth belonging to "CC(C)=CCc1c(O)cc2oc(C)cc(=O)c2c1O" and report it.
Response line: 0.95 (inactive)

Prompt line: Now consider "CC(C)[N+](C)(CCOC(=O)C1c2ccccc2Oc2ccccc21)C(C)C" and answer again.
Response line: 0.996 (inactive)

Prompt line: What about this molecule? "COc1ccc2c(c1)OC[C@@H](Cc1ccc(OC)c(OC)c1)[C@@H]2O"
Response line: 1.01 (inactive)

Prompt line: Query "CN=C(NC#N)NCCSCc1nc[nH]c1C" next
Response line: 0.986 (inactive)

----------
normalized growth values, listed per item
experiment: chemical genetic growth profiling, strain panel (AID 1159580)
test settings: S. cerevisiae deletion strains, growth OD, locus YJL092W, strain hpr5, hits give low values
About 2,000 (36%) of roughly 5,500 compounds were called active. About 18% were inconclusive and are not listed. Some of the results follow.
Quick one: just the number, no unit, thanks!

CC(C)CC1C(=O)N2CCC[C@H]2C2(O)O[C@](NC(=O)C3C=C4c5cccc6[nH]c(Br)c(c56)C[C@H]4N(C)C3)(C(C)C)C(=O)N12 (stereo not given in full); 0.968
S=C=NCc1ccccc1; 0.08
CC(=O)O[C@]1(C(C)=O)CCC2C3C=C(Cl)C4=CC(=O)CC[C@]4(C)C3CC[C@@]21C (stereo not given in full); 1.01
CCc1nc(N)nc(N)c1-c1ccc(Cl)cc1; 0.956

Turning to the following compound.
Prompt line: Would you kindly share the measured normalized growth for "Cc1cc(OC(=O)N2CCCCC2)c(C(C)C)cc1[N+](C)(C)C" ?
Response line: 1.01

----------
experiment: chemical genetic growth profiling, strain panel (AID 1159580);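 note: tested at 20 µM; growth read once vehicle control cultures reached saturation at 30 °C; 1 = growth at the plate median or of vehicle wells; lower values mean less growth of the strain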
test settings: S. cerevisiae deletion strains, growth OD, locus YOL012C, strain htz1
About 2,000 (36%) of roughly 5,500 compounds were called active. About 18% were inconclusive and are not listed. Rule as the data show it: active = normalized growth mostly below about 0.91 (no sharp cut-off); inconclusive = no clear call, values can overlap the other calls; inactive = mostly above about 0.92. The list shows a part of the results.
Can you answer with just one of these options? Yes for active, No for inactive

Previously resolved entries follow.
O=C(O)C1CC([C@@H]2CCCCN2)CN2CCCCC12 (some centres not stated); No
CC(C)(C)CC(C)(C)c1ccc(OCCOCC[N+](C)(C)Cc2ccccc2)cc1; No
N#Cc1c(Cl)c(Cl)c(Cl)c(C#N)c1Cl; No
C=CCc1ccc2c(c1)OCO2; No

Prompt line: Answer briefly: the call reported for "C1CCc2nnnn2CC1" in this assay.
Response line: No

Prompt line: And then "OC(CCN1CCCCC1)(c1ccccc1)c1ccccc1" , what is it?
Response line: No

----------
Form field: normalized growth (one value per entry).
experiment: chemical genetic growth profiling, strain panel (AID 1159580);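 note: tested at 20 µM; growth read once vehicle control cultures reached saturation at 30 °C; 1 = growth at the plate median or of vehicle wells; lower values mean less growth of the strain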
test settings: S. cerevisiae deletion strains, growth OD, locus YLR342W, strain FKS1, hits give low values
Screen size: about 5,500 compounds; about 2,000 (36%) were called active. Inconclusive results (about 18%) are left out. This is one part of the list.
// keep it numeric: no unit symbol after the value

COc1ccc(-c2coc3c(O)c(OC)ccc3c2=O)cc1; 0.963
CC(=O)O[C@]1(C(C)=O)CCC2C3C=C(Cl)C4=CC(=O)CC[C@]4(C)C3CC[C@@]21C (some centres undefined); 0.974

Prompt line: I would be grateful if you could share the reported normalized growth for "CC(=O)CC(=O)CCC(=O)O" .
Response line: 1.03

Prompt line: What do we get for CC(=O)[C@H]1CCC2C3C[C@H](C)C4=CC(=O)CC[C@]4(C)C3[C@@H](O)C[C@@]21C (some centres undefined) ?
Response line: 0.972

----------
experiment: chemical genetic growth profiling, strain panel (AID 1159580);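 note: tested at 20 µM; growth read once vehicle control cultures reached saturation at 30 °C; 1 = growth at the plate median or of vehicle wells; lower values mean less growth of the strain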
test settings: S. cerevisiae deletion strains, growth OD, locus YPL241C, strain CIN2, hits give low values
In all, about 5,500 compounds went through this assay and about 2,000 (36%) were called active. Inconclusive results (about 18%) are left out. This is one part of the list.
test readout: normalized growth
# respond with the number and nothing more

CN1CCc2cc3c(cc2C1O)OCO3 (stereo not given); 0.988

# ---- query molecule ----
Prompt line: Consider the molecule "C1CCc2nnnn2CC1" and give its measured normalized growth.
Response line: 1
